target: Epidermal growth factor receptor (Homo sapiens); experiment: Inhibition of autophosphorylation of epidermal growth factor receptor prepared from human A431 carcinoma cells.
Sequence (P00533 whole entry): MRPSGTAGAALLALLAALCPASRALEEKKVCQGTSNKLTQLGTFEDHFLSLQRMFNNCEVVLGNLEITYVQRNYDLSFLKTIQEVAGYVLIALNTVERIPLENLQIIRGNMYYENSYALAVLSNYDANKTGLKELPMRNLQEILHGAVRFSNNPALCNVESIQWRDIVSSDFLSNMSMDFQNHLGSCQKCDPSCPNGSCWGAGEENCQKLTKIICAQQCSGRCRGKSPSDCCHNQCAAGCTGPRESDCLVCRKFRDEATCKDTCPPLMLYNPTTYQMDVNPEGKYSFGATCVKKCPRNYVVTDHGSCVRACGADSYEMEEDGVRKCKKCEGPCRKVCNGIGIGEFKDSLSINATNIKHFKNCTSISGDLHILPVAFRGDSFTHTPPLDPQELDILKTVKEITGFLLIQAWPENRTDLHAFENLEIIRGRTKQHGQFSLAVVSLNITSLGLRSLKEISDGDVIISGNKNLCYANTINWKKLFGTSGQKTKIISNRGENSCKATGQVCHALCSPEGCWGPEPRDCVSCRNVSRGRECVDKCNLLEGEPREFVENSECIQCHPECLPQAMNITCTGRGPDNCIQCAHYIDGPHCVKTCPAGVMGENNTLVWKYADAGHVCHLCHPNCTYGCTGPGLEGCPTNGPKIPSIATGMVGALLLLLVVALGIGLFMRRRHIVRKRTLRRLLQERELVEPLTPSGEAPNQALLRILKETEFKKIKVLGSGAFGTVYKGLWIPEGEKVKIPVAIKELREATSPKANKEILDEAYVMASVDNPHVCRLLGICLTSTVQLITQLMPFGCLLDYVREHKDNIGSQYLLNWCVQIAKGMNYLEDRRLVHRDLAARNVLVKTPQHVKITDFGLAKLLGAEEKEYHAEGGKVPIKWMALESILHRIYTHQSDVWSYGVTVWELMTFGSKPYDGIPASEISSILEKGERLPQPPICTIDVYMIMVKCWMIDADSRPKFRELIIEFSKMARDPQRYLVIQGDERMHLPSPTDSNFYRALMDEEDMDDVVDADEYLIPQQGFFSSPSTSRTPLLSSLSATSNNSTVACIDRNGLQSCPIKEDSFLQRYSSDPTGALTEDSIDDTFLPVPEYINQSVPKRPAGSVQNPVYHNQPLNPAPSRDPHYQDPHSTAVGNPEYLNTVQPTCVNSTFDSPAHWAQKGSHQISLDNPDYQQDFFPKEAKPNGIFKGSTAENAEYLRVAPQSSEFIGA
measured-metric: log10 IC50 (log10 of the value in µM)
# values: log10(IC50), units µM

CN(C)CCN(C)Cc1c[nH]c2cc3ncnc(Nc4cccc(Br)c4)c3cc12; -1.09

Bench note, Epidermal growth factor receptor (Homo sapiens): OCC(O)Cn1ncc2cc3c(Nc4cccc(Br)c4)ncnc3cc21 (stereo unspecified) , log10 IC50 reads -0.50

Noted log10 IC50 for Brc1cccc(Nc2ncnc3cc4c(cnn4CCCN4CCOCC4)cc23)c1 , tested on Epidermal growth factor receptor (Homo sapiens): -1.11
